Target: WEE1 (Homo sapiens, UniProt P30291+Q96SW2)
Construct: C-terminal ePL-tagged (DiscoverX, Fremont, CA) full-length WEE1 expression construct; expressed in transfected cells; host or cells: LentiX-HEK293T (Invitrogen), lentivirally transduced; the cells also over-express GSPT1-GN
Sequence (P30291 whole entry): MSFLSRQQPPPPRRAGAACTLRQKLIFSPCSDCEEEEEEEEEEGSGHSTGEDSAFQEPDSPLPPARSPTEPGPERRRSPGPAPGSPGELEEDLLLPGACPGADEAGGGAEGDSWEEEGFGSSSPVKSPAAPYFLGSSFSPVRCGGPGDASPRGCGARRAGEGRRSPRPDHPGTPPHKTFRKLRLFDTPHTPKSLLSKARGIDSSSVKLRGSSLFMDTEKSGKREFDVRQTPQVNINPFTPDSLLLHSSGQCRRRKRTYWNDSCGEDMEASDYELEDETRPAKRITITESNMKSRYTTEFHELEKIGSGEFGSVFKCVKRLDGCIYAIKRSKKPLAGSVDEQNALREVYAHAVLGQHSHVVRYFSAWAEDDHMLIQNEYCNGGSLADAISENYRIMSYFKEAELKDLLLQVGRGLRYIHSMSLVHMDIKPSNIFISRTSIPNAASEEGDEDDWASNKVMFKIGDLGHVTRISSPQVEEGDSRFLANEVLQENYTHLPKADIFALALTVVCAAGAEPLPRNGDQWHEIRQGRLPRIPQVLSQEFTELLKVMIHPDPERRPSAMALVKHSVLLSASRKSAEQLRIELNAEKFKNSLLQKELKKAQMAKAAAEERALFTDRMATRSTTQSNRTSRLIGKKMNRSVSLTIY
Sequence (Q96SW2 whole entry): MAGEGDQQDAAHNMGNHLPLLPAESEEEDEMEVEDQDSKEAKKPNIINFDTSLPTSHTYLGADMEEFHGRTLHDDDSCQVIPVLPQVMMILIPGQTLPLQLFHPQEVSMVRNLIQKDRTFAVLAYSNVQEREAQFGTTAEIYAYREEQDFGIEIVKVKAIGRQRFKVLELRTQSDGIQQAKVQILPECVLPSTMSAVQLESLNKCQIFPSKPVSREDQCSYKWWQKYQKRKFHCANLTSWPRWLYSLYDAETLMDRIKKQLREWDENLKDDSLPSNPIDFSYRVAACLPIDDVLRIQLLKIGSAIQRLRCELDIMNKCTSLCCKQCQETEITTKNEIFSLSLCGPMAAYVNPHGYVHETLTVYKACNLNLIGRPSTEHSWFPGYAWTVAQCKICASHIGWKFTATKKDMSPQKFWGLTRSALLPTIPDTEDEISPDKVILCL
Sequence (Q16531 whole entry partner): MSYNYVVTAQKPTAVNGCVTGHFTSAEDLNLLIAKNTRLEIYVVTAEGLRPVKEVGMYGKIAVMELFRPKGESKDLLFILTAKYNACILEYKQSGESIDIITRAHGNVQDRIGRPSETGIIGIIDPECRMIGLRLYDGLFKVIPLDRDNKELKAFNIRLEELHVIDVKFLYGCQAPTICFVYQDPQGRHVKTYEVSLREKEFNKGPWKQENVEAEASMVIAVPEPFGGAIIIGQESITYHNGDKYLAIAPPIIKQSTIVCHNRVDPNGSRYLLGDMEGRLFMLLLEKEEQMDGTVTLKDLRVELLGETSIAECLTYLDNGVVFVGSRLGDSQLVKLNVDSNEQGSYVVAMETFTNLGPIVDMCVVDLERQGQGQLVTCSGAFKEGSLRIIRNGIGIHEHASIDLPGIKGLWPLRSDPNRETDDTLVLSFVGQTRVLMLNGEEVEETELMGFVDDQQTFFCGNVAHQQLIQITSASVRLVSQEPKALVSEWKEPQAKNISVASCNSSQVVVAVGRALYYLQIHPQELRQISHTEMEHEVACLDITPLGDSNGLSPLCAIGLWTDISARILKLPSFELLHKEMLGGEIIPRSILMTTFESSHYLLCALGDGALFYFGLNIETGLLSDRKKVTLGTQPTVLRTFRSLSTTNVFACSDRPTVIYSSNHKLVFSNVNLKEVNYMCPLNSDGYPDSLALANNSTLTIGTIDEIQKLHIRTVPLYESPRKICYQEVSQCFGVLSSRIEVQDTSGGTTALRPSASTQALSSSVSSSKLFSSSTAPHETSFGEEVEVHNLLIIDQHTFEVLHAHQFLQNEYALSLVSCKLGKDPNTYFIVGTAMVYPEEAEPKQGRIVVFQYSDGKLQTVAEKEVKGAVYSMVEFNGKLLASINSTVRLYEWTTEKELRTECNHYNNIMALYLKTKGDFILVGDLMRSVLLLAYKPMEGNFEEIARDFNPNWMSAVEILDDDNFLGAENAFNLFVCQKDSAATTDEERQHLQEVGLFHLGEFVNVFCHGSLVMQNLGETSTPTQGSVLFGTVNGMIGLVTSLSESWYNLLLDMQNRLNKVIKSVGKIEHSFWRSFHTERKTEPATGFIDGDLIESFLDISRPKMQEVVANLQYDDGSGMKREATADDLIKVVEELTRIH
Experiment: WEE1-ePL degradation assay (293T-LentiX, InCELL Hunter luminescence, 4 hr)
Type: cell-based
Settings: lower limit of fit, % of DMSO control signal remaining; 4 hr
Threshold-based label: 293T-LentiX WEE1-ePL Degradation 4 hr YMin (%) under 30% gives class 1, 293T-LentiX WEE1-ePL Degradation 4 hr YMin (%) not under 30% gives class 0.

Please review the following examples before continuing.
Compound	Qualitative Label
COC[C@@H]1CN(Cc2cc3ccc(N4CCN(C(C)=O)CC4)cc3c(F)n2)C[C@H]1Oc1ccc2c(c1)CN([C@H]1CCC(=O)NC1=O)C2=O	class 1
O=C1CC[C@H](N2Cc3cc(O[C@H]4CCN(Cc5cc(F)c6nc(N7C[C@H]8CCO[C@H]8C7)ccc6c5)C4)ccc3C2=O)C(=O)N1 (single isomer, unassigned)	class 0

Answer whether the compound `COC[C@@H]1CN(Cc2cc(F)c3nc(N4CCC(C(C)(C)O)CC4)ccc3c2)C[C@H]1Oc1ccc2c(c1)CN([C@H]1CCC(=O)NC1=O)C2=O` has 293T-LentiX WEE1-ePL Degradation 4 hr YMin (%) strictly less than 30%
class 1

Answer whether the compound `COC[C@@H]1CN(Cc2cnc3nc(C4CCOCC4)ncc3c2)C[C@H]1Oc1ccc2c(c1)CN([C@H]1CCC(=O)NC1=O)C2=O` has 293T-LentiX WEE1-ePL Degradation 4 hr YMin (%) strictly less than 30%
class 0

Answer whether the compound `CC(C)O[C@@H]1CN(Cc2cc(F)c3nc(C4CCOCC4)ccc3c2)C[C@H]1Oc1ccc2c(c1)CN([C@H]1CCC(=O)NC1=O)C2=O` has 293T-LentiX WEE1-ePL Degradation 4 hr YMin (%) strictly less than 30%
class 0

====

Molecular target: WEE1 (Homo sapiens, UniProt P30291+Q96SW2)
Construct: C-terminal ePL-tagged (DiscoverX, Fremont, CA) full-length WEE1 expression construct; expressed in transfected cells; host or cells: LentiX-HEK293T (Invitrogen), lentivirally transduced; the cells also over-express GSPT1-GN
Assay: WEE1-ePL degradation assay (293T-LentiX, InCELL Hunter luminescence, 4 hr)
Format: cell-based
Conditions: lower limit of fit, % of DMSO control signal remaining; 4 hr
Source text: To generate LentiX-WEE1-ePL-GSPT1-ND cells for the WEE1 degradation assay, LentiX-HEK293T (Invitrogen) were tranduced by lentivirus with a C-terminal ePL-tagged (DiscoverX, Fremont, CA) full-length WEE1 expression construct. A separate lentiviral construct was introduced to over-express a mutated form of GSPT1 (NP_002085), termed GSPT1-GN, which contains a G575N mutation and is further truncated in the first 158 amino acids. GSPT1-GN is functional but not degradable by Cereblon. […]
Measure: 293T-LentiX WEE1-ePL Degradation 4 hr YMin (%)
Lab book: enter the figure in %, no units written.

Compound	Numeric Value
COC[C@@H]1CN(Cc2cc(F)c3nc(C45CCC(O)(CC4)CC5)ccc3c2)C[C@H]1Oc1ccc2c(c1)CN([C@H]1CCC(=O)NC1=O)C2=O	27.9
COC[C@@H]1CN(Cc2ccc3nc(C4CCN(C5CN(C)C5)CC4)ccc3c2)C[C@H]1Oc1ccc2c(c1)CN([C@H]1CCC(=O)NC1=O)C2=O	22.0
COC[C@@H]1CN(Cc2cc(F)c3nc(C4CCOC(C)(C)C4)ncc3c2)C[C@H]1Oc1ccc2c(c1)CN([C@H]1CCC(=O)NC1=O)C2=O (some centres unmarked)	27.1
COC[C@@H]1CN(Cc2cc3ccc(C4CCC(O)CC4)cc3cn2)C[C@H]1Oc1ccc2c(c1)CN([C@H]1CCC(=O)NC1=O)C2=O (relative stereo)	29.0
Cc1cc([C@H]2CN(Cc3cc(F)c4nc(C5CCOCC5)ccc4c3)C[C@@H]2Oc2ccc3c(c2)CN([C@H]2CCC(=O)NC2=O)C3=O)cc(C)n1 (relative stereo)	93.2

Specify reported 293T-LentiX WEE1-ePL Degradation 4 hr YMin (%) for the compound shown: `COC[C@@H]1CN(Cc2ccc3nc(C4CCOCC4)cnc3c2)C[C@H]1Oc1ccc2c(c1)CN([C@H]1CCC(=O)NC1=O)C2=O`
31.9

Specify reported 293T-LentiX WEE1-ePL Degradation 4 hr YMin (%) for the compound shown: `COC[C@@H]1CN(Cc2cc(F)c3nc(C(=O)N(C)C)ccc3c2)C[C@H]1Oc1ccc2c(c1)CN([C@H]1CCC(=O)NC1=O)C2=O`
31.1

Specify reported 293T-LentiX WEE1-ePL Degradation 4 hr YMin (%) for the compound shown: Cc1cc([C@@H]2CN(Cc3cc(F)c4nc(C5CCOCC5)ccc4c3)C[C@H]2Oc2ccc3c(c2)CN([C@H]2CCC(=O)NC2=O)C3=O)ccn1 (relative stereo)
90.0

Specify reported 293T-LentiX WEE1-ePL Degradation 4 hr YMin (%) for the compound shown: `COC[C@@H]1CN(Cc2cc(F)c3nc(C(=O)N4CCOCC4)ccc3c2)C[C@H]1Oc1ccc2c(c1)CN([C@H]1CCC(=O)NC1=O)C2=O`
29.8

Specify reported 293T-LentiX WEE1-ePL Degradation 4 hr YMin (%) for the compound shown: O=C1CC[C@H](N2Cc3cc(O[C@@H]4CN(Cc5cc(F)c6nc(C7CCOCC7)ccc6c5)C[C@H]4C4CCCC4)ccc3C2=O)C(=O)N1 (relative stereo)
82.5

Specify reported 293T-LentiX WEE1-ePL Degradation 4 hr YMin (%) for the compound shown: `COC[C@@H]1CN(Cc2ccc3nc(N4CCN(C(C)=O)C5(CC5)C4)ncc3c2)C[C@H]1Oc1ccc2c(c1)CN([C@H]1CCC(=O)NC1=O)C2=O`
26.4

====

Tested on: MKN45 cells
Experiment: MKN45 cell proliferation assay (Cell-Titer-Glo, 120 hr)
Format: cell-based
Settings: Homo sapiens, MKN-45, 120 h, read-out: MKN45 Cell Prolif. 120 hr EC50
Listing: log10 EC50 of selected compounds
Give log10 of EC50, with EC50 taken in nM.

Compound	Study Target	Measure	Numeric Value
COC[C@@H]1CN(Cc2cc(F)c3nc(C4CN(C(C)=O)C4)ccc3c2)C[C@H]1Oc1ccc2c(c1)CN([C@H]1CCC(=O)NC1=O)C2=O [Example 36]	MKN45 cells	log10 EC50	0.95
COC[C@@H]1CN(Cc2cc(F)c3nc(C4CCC(O)CC4)ncc3c2)C[C@H]1Oc1ccc2c(c1)CN([C@H]1CCC(=O)NC1=O)C2=O (relative stereo) [Example 50]	MKN45 cells	log10 EC50	0.85
O=C1CC[C@H](N2Cc3cc(O[C@H]4CCN(Cc5ccc6nc([C@@H]7CCO[C@@]8(CCOC8)C7)ccc6c5)C4)ccc3C2=O)C(=O)N1 (relative stereo) [Example 20]	MKN45 cells	log10 EC50	0.70
COC[C@@H]1CN(Cc2ccc3nc(N4CCN(C5CN(C)C5)CC4)ccc3c2)C[C@H]1Oc1ccc2c(c1)CN([C@H]1CCC(=O)NC1=O)C2=O [Example 113]	MKN45 cells	log10 EC50	0.60
COC[C@@H]1CN(Cc2cc(F)c3c(ccn3C(=O)C3CCOCC3)c2)C[C@H]1Oc1ccc2c(c1)CN([C@H]1CCC(=O)NC1=O)C2=O [Example 24]	MKN45 cells	log10 EC50	1.70

Report its log10 EC50 with MKN45 cells as the test system: COC[C@@H]1CN(Cc2cc(F)c3nc(COC4CCOCC4)ncc3c2)C[C@H]1Oc1ccc2c(c1)CN([C@H]1CCC(=O)NC1=O)C2=O [Example 42]
0.95

Report its log10 EC50 with MKN45 cells as the test system: COC[C@@H]1CN(Cc2cc(F)c3nc(C4CN(CC(F)(F)F)C4)ncc3c2)C[C@H]1Oc1ccc2c(c1)CN([C@H]1CCC(=O)NC1=O)C2=O [Example 46]
0.30

Report its log10 EC50 with MKN45 cells as the test system: COC[C@@H]1CN(Cc2cc3ccc(N4CCOCC4)c(F)c3cn2)C[C@H]1Oc1ccc2c(c1)CN([C@H]1CCC(=O)NC1=O)C2=O [Example 48]
0.00

Report its log10 EC50 with MKN45 cells as the test system: COC[C@@H]1CN(Cc2cc(F)c3nc(N4C[C@@H]5CCO[C@@H]5C4)ncc3c2)C[C@H]1Oc1ccc2c(c1)CN([C@H]1CCC(=O)NC1=O)C2=O (single isomer, unassigned) [Example 13]
0.48

Report its log10 EC50 with MKN45 cells as the test system: COC[C@@H]1CN(Cc2cc(F)c3nc(N4CCCC4=O)ccc3c2)C[C@H]1Oc1ccc2c(c1)CN([C@H]1CCC(=O)NC1=O)C2=O [Example 59]
0.00

Report its log10 EC50 with MKN45 cells as the test system: COC[C@@H]1CN(Cc2cc(F)c3nc(N4CCOC5(CC5)C4)ncc3c2)C[C@H]1Oc1ccc2c(c1)CN([C@H]1CCC(=O)NC1=O)C2=O [Example 79]
0.00
